Details: in n-hexane, 288.15 K
Measure: solubility (mole fraction)
Answers are plain numbers.

Query: I have this compound here, "FC(F)(F)c1cccnc1Cl" , and I need its recorded solubility (mole fraction).
Reply: 0.199

====

Conditions: in n-heptane, 303.15 K
Measure: solubility (mole fraction)
One number for each entry.

Query: What value of measured solubility (mole fraction) is listed for "FC(F)(F)c1cccnc1Cl" ?
Reply: 0.556

====

Settings: in n-heptane, 273.15 K
Measure: solubility (mole fraction)
Answers are plain numbers.

Query: Suppose we examine the molecule "FC(F)(F)c1cccnc1Cl" ; what solubility (mole fraction) value has been reported?
Reply: 0.037

====

Conditions: in n-propanol, 278.15 K
Measure: solubility (mole fraction)
Numbers only.

Query: Which measured solubility (mole fraction) value corresponds to "FC(F)(F)c1cccnc1Cl" ?
Reply: 0.0992

====

Conditions: in n-heptane, 278.15 K
Measure: solubility (mole fraction)

Query: Consider the compound "FC(F)(F)c1cccnc1Cl" and give its measured solubility (mole fraction).
Reply: 0.0552

====

Details: in n-heptane, 288.15 K
Measure: solubility (mole fraction)
Numbers only.

Query: // solubility (mole fraction) lookup, key: "FC(F)(F)c1cccnc1Cl"
Reply: 0.14

====

Settings: in n-hexane, 293.15 K
Measure: solubility (mole fraction)
One number for each entry.

Query: Please report the recorded solubility (mole fraction) for "FC(F)(F)c1cccnc1Cl" .
Reply: 0.336

====

Details: in n-heptane, 293.15 K
Measure: solubility (mole fraction)
Answers are plain numbers.

Query: Data request, read-out solubility (mole fraction), for "FC(F)(F)c1cccnc1Cl"
Reply: 0.222

====

Details: in n-hexane, 278.15 K
Measure: solubility (mole fraction)

Query: Item under review: "FC(F)(F)c1cccnc1Cl" . Reported solubility (mole fraction)?
Reply: 0.0733

====

Settings: in ethanol, 303.15 K
Measure: solubility (mole fraction)
Give bare numbers.

Query: # solubility (mole fraction) lookup, item "FC(F)(F)c1cccnc1Cl"
Reply: 0.875

====

Conditions: in dichloromethane, 278.15 K
Measure: solubility (mole fraction)
Give bare numbers.

Query: // returns reported solubility (mole fraction) for input "FC(F)(F)c1cccnc1Cl"
Reply: 0.365

====

Settings: in ethanol, 293.15 K
Measure: solubility (mole fraction)

Query: Recorded solubility (mole fraction) of "FC(F)(F)c1cccnc1Cl" , please.
Reply: 0.475

====

Details: in dichloromethane, 288.15 K
Measure: solubility (mole fraction)
One number for each entry.

Query: # get_value(readout='solubility (mole fraction)', item= "FC(F)(F)c1cccnc1Cl" )
Reply: 0.469

====

Conditions: in toluene, 283.15 K
Measure: solubility (mole fraction)
One number for each entry.

Query: Looking for the measured solubility (mole fraction) of "FC(F)(F)c1cccnc1Cl" , can you help?
Reply: 0.491

====

Details: in toluene, 298.15 K
Measure: solubility (mole fraction)
One number for each entry.

Query: Need solubility (mole fraction), item "FC(F)(F)c1cccnc1Cl"
Reply: 0.724

====

Conditions: in ethanol, 278.15 K
Measure: solubility (mole fraction)
One number for each entry.

Query: Entry "FC(F)(F)c1cccnc1Cl" : reported solubility (mole fraction) = ?
Reply: 0.182

====

Conditions: in n-heptane, 298.15 K
Measure: solubility (mole fraction)
Numbers only.

Query: Need solubility (mole fraction), item "FC(F)(F)c1cccnc1Cl"
Reply: 0.36

Reference for the values: BigSolDB 2.1
